test system: SUDHL10; experiment: Induction of cytotoxicity (CellTiter-Glo, 5 h), SUDHL10; settings: Homo sapiens, SU-DHL10, 5 h, read-out: Cytotox SUDHL10 [M] (median), SUDHL10 cells, cytotoxicity induction, CellTiter-Glo, 5 h, median
RESULT TYPE: IC50

- Cc1ccc2c(OCCCc3c(C(=O)O)n4c5c(cccc35)-c3c(nn(C)c3C)COCCCC4)cccc2c1 (racemic) [Example 307]: > 3.3e-05 M
- Cn1nc(CN2CCCC2)c2c1COCCCCn1c(C(=O)O)c(CCCOc3cccc4ccccc34)c3cccc-2c31 (single isomer, unassigned; enantiomer 1) [Example 336]: > 3.3e-05 M
- Cc1nn(C)c2c1-c1cccc3c(CCCOc4cccc5c(Cl)cccc45)c(C(=O)O)n(c13)CCCCOC2 (racemic): > 3.3e-05 M
- Cn1nc(COCc2ccc(C#N)cc2)c2c1COCCCCn1c(C(=O)O)c(CCCOc3cccc4ccccc34)c3cccc-2c31 (single isomer, unassigned; enantiomer 1): > 3.3e-05 M
- Cn1nc(CN2CCCCC2=O)c2c1COCCCCn1c(C(=O)O)c(CCCOc3cccc4ccccc34)c3cccc-2c31 (racemic) [Example 325]: > 3.3e-05 M
- Cn1nc(CN2CCCCC2=O)c2c1COCCCCn1c(C(=O)O)c(CCCOc3cccc4ccccc34)c3cccc-2c31 (single isomer, unassigned; enantiomer 1) [Example 326]: > 3.3e-05 M
